PROTOCOL_TEXT: 1-Octanol-water distribution coefficient, log D of the compound at pH 7.4 by shake-flask method
Assay type: physicochemical
A collection of compounds and their measured logD
ENDPOINT: logD

CCOc1cc(CC(=O)N[C@@H](CC(C)C)c2ccccc2N2CCCCC2)ccc1C(=O)O [REPAGLINIDE] ... 2.2
O=C(O)CCn1c2c(c3ccccc31)C[C@H](NS(=O)(=O)c1ccc(F)cc1)CC2 ... 0.5
COc1ccc(Cl)cc1C(=O)NCCc1ccc(S(=O)(=O)NC(=O)NC2CCCCC2)cc1 [GLYBURIDE] ... 2.2
CCCCc1nc(Cl)c(CO)n1Cc1ccc(-c2ccccc2-c2nn[nH]n2)cc1 ... 0.6
CC(=O)c1ccc(S(=O)(=O)NC(=O)NC2CCCCC2)cc1 [ACETOHEXAMIDE] ... -0.3
Cc1ccc(S(=O)(=O)NC(=O)NN2CCCCCC2)cc1 [TOLAZAMIDE] ... 0
O=C(c1ccccc1)c1ccc2n1CCC2C(=O)O (stereo not drawn) ... -1
O=C(O)CCc1nc(-c2ccccc2)c(-c2ccccc2)o1 ... 1
